Values compiled from patent US9695155B2.

Assignment: determine reported Plant response rating, Foxtail, Giant for the given molecules.
# Test system: giant foxtail
# test summary: Test A postemergence
# Type: in vivo, Setaria faberii
# assay setup: 500 g ai/ha, 0 to 100 scale, 0 no effect, 100 complete control
One number for each entry.

Answered cases to consult:
>>> print(df.to_string())
                           structure_string  observed_measurement
0  Clc1cnc(Oc2ccccc2-n2cc(-c3ccccc3)cn2)nc1                    90
1     C=C(C)c1cnn(-c2ccccc2Oc2ncc(Cl)cn2)c1                    30

Give Plant response rating, Foxtail, Giant for each of the items listed below.
1. Cc1cccc(Oc2ncc(Br)cn2)c1-n1cc(Br)cn1
2. C=Cc1cnn(-c2ccccc2Oc2ncc(Cl)cn2)c1
3. N#Cc1cccc(Oc2ncc(Br)cn2)c1-n1cc(Br)cn1
4. Fc1cnc(Oc2ccccc2-n2cc(C(F)(F)F)cn2)nc1
5. CC=Cc1cnn(-c2ccccc2Oc2ncc(Cl)cn2)c1

OUTPUT:
90
50
100
100
30

* * *

# Test system: corn
# test summary: Test A postemergence
# Type: in vivo, Zea mays
# assay setup: 125 g ai/ha, 0 to 100 scale where 0 is no effect and 100 is complete control
Assignment: determine reported Corn plant response rating for the given compounds.

Give Corn plant response rating for each of the items listed below.
1. CC(C)c1cnc(Oc2cccc(C#N)c2-n2cc(Br)cn2)nc1
2. FC(F)c1cccc(Oc2ncc(Cl)cn2)c1-n1cc(Cl)cn1
3. Clc1cnc(Oc2cccc(Br)c2-n2cc(Cl)cn2)nc1
4. N#Cc1cnn(-c2c(Br)cccc2Oc2ncc(Cl)cn2)c1
5. FC(F)c1cnn(-c2c(Br)cccc2Oc2ncc(Cl)cn2)c1
6. O=Cc1cccc(Oc2ncc(Br)cn2)c1-n1cc(Br)cn1
7. CCCOc1cnn(-c2c(F)cccc2Oc2ncc(Cl)cn2)c1
8. CC(C)Oc1cnn(-c2c(C#N)cccc2Oc2ncc(Cl)cn2)c1

OUTPUT:
1. 0
2. 30
3. 10
4. 30
5. 30
6. 0
7. 10
8. 20

Give Corn plant response rating for each of the items listed below.
1. COc1cnn(-c2ccccc2Oc2ncc(Cl)cn2)c1
2. FC(F)Oc1cnn(-c2c(Br)cccc2Oc2ncc(Cl)cn2)c1

OUTPUT:
[0, 30]

* * *

# Test system: wheat, winter
# test summary: Test C postemergence
# Type: in vivo, Triticum aestivum
# assay setup: Postemergence, 62 g ai/ha; scale 0 to 100 (0 no effect, 100 complete control)
measurement kind: Plant response rating, Wheat
Numbers only.

                           structure_string            tgt              measurement_kind  observed_measurement
0  FC(F)c1cccc(Oc2ncc(Br)cn2)c1-n1cc(C(F)(F)F)cn1  wheat, winter  Plant response rating, Wheat                     0
1  FC(F)(F)c1cnn(-c2c(Br)cccc2Oc2ncc(Cl)cn2)c1  wheat, winter  Plant response rating, Wheat                     0
2    Cc1cnc(Oc2cccc(C#N)c2-n2cc(C#N)cn2)nc1  wheat, winter  Plant response rating, Wheat                     0
3      Clc1cnc(Oc2cccc(Br)c2-n2cc(I)nn2)nc1  wheat, winter  Plant response rating, Wheat                     5
4   Fc1cnc(Oc2cccc(C(F)F)c2-n2cc(Cl)cn2)nc1  wheat, winter  Plant response rating, Wheat                     0

Give Plant response rating, Wheat for each of the items listed below.
1. Clc1cnc(Oc2cccc(Cl)c2-n2cc(I)cn2)nc1
2. FC(F)Oc1cnn(-c2ccccc2Oc2ncc(Cl)cn2)c1

OUTPUT:
[0, 5]

* * *

# System: ragweed
# test summary: Test A postemergence
# Type: in vivo, Ambrosia elatior
# assay setup: 125 g ai/ha, 0 to 100 scale where 0 is no effect and 100 is complete control
Assignment: determine reported Ragweed plant response rating for the given molecules.
One number for each entry.

>>> df
                                   molecule      tgt  observed_measurement
0  COc1ccc(C#N)c(-n2cc(Br)cn2)c1Oc1ncc(Cl)cn1 [Compound 212]  ragweed                     0
1  CC(C)Oc1cnn(-c2c(C#N)cccc2Oc2ncc(Cl)cn2)c1 [Compound 149]  ragweed                    80
2  N#Cc1cccc(Oc2ncc(Cl)cn2)c1-n1cc(SC(F)(F)F)cn1 [Compound 134]  ragweed                    50

Give Ragweed plant response rating for each of the items listed below.
1. CC(C)c1cnc(Oc2cccc(C#N)c2-n2cc(Br)cn2)nc1 [Compound 130]
2. FC(F)Oc1cnn(-c2c(Br)cccc2Oc2ncc(Cl)cn2)c1 [Compound 122]
3. CCCOc1cnn(-c2c(F)cccc2Oc2ncc(F)cn2)c1 [Compound 153]

OUTPUT:
1: 0; 2: 30; 3: 0

* * *

# Tested on: corn
# test summary: Test C postemergence
# Type: in vivo, Zea mays
# assay setup: 125 g ai/ha, postemergence; visual rating, scale 0 to 100 (0 no effect, 100 complete control)
measurement kind: Plant response rating, Corn
Answers are plain numbers.

Answered cases to consult:
                                   compound  observed_measurement
0  FCc1cccc(Oc2ncc(Cl)cn2)c1-n1cc(I)cn1 [Compound 245]                     5
1  Clc1cnc(Oc2cccc(Cl)c2-n2cc(Cl)cn2)nc1 [Compound 220]                    10

Give Plant response rating, Corn for each of the items listed below.
1. N#Cc1cnn(-c2c(C#N)cccc2Oc2ncc(Cl)cn2)c1 [Compound 200]
2. Cc1cnc(Oc2cccc(C#N)c2-n2cc(C(F)(F)F)cn2)nc1 [Compound 180]
3. N#Cc1cn(-c2c(C#N)cccc2Oc2ncc(Cl)cn2)nn1 [Compound 273]
4. Clc1cnc(Oc2cccc(Br)c2-n2cc(Cl)cn2)nc1 [Compound 221]

OUTPUT:
1. 15
2. 10
3. 5
4. 10

* * *

# Test system: large (Lg) crabgrass
# test summary: Test A preemergence
# Format: in vivo, Digitaria sanguinalis
# assay setup: 500 g ai/ha, 0 to 100 scale, 0 no effect, 100 complete control, approx. 10 days
measurement kind: Crabgrass, Large plant response rating
Answers are plain numbers.

                           structure_string  observed_measurement
0  FC(F)(F)c1ccc(Oc2ncc(Cl)cn2)c(-n2cc(Br)cn2)c1                    80

Give Crabgrass, Large plant response rating for each of the items listed below.
1. N#Cc1cccc(Oc2ncc(C(F)(F)F)cn2)c1-n1cc(Br)cn1
2. Cc1cccc(Oc2ncc(Cl)cn2)c1-n1cc(Br)cn1
3. N#Cc1cccc(Oc2ncc(Br)cn2)c1-n1cc(Cl)cn1
4. Cc1cnn(-c2c(C#N)cccc2Oc2ncc(Cl)cn2)c1
5. N#Cc1cnn(-c2ccccc2Oc2ncc(Cl)cn2)c1
6. N#Cc1cccc(Oc2ncc(Cl)cn2)c1-n1cc(OC(F)F)cn1

OUTPUT:
1. 100
2. 100
3. 100
4. 100
5. 100
6. 100

* * *

Assignment: determine reported Plant response rating, Kochia for the given compounds.
# Tested on: kochia
# test summary: Test A postemergence
# Assay type: in vivo, Kochia scoparia
# assay setup: 125 g ai/ha, 0 to 100 scale, 0 no effect, 100 complete control
One number for each entry.

Answered cases to consult:
>>> df
                           structure_string               measurement_kind  observed_measurement
0   N#Cc1cn(-c2c(C#N)cccc2Oc2ncc(Cl)cn2)nn1  Plant response rating, Kochia                    70
1     FCc1cccc(Oc2ncc(Br)cn2)c1-n1cc(Cl)cn1  Plant response rating, Kochia                    60
2    N#Cc1cnn(-c2c(CF)cccc2Oc2ncc(Br)cn2)c1  Plant response rating, Kochia                    30
3  N#Cc1cccc(Oc2ncc(Cl)cn2)c1-n1cc(C(F)F)cn1  Plant response rating, Kochia                   100

Lookup result for Cc1cn(-c2c(C#N)cccc2Oc2ncc(Cl)cn2)cn1 ; measured Plant response rating, Kochia: 60

* * *

# Tested on: field bindweed
# test summary: Test E preemergence
# Format: in vivo, Convolvulus arvensis
# assay setup: 16 g ai/ha, scale 0 to 100 (0 no effect, 100 complete control)
Assignment: determine reported Field Bindweed plant response rating for the given compounds.
Answers are plain numbers.

>>> df
                           structure_string  observed_measurement
0    Cc1cnc(Oc2cccc(C#N)c2-n2cc(C#N)cn2)nc1                    35
1   N#Cc1cnn(-c2c(C#N)cccc2Oc2ncc(Cl)cn2)c1                     5
2  NC(=S)c1cccc(Oc2ncc(Cl)cn2)c1-n1cc(Cl)cn1                     0

Kindly review the next compound as well.
Lookup result for FC(F)c1cccc(Oc2ncc(Cl)cn2)c1-n1cc(C(F)(F)F)cn1 ; measured Field Bindweed plant response rating: 0
